tested on: L. major promastigotes; test: Growth inhibition of L. major promastigotes (resazurin); assay type: cell-based; conditions: promastigotes, 6 days; read-out: L. major EC50
pEC50: −log10 of the molar value.

| molecule | pEC50 |
| --- | --- |
| CC1=C(N2CC2)C(=O)C(CO)=C(N2CC2)C1=O [RH1] | 7.17 |

---

Each entry below carries its reported pEC50.
tested on: RH1^RC1 T. brucei; assay: microbe, parasite or virus in culture; type: cell-based; settings: Trypanosoma brucei, read-out: EC50 RH1^RC1
pEC50: −log10 of the molar value.

| molecule | pEC50 |
| --- | --- |
| NC(=O)c1cc(N2CC2)c([N+](=O)[O-])cc1[N+](=O)[O-] [CB1954, reference compound] | 4.88 |
| S=P(N1CC1)(N1CC1)N1CC1 [ThioTEPA, reference compound] | 4.25 |
| CC1CCC(NC(=O)N(CCCl)N=O)CC1 (stereo not drawn) [Semustine] | 4.77 |
| O=NN(CCCl)C(=O)NC1CCCCC1 [Lomustine] | 4.81 |
| C1CN1c1nc(N2CC2)nc(N2CC2)n1 [Triethylenemelamine] | 5.56 |
| CC1=C(N2CC2)C(=O)C(CO)=C(N2CC2)C1=O [RH1] | 7.07 |
| O=C1C(N2CC2)=C(N2CC2)C(=O)C(N2CC2)=C1N1CC1 [ABQ22] | 6.63 |
| NCCCC(N)(C(=O)O)C(F)F (stereo not drawn) [DFMO, difluoromethylornithine, reference compound] | 4.65 |
| N[C@@H](Cc1ccc(N(CCCl)CCCl)cc1)C(=O)O [Melphalan] | 4.98 |

---

test system: L. major promastigotes; experiment: Growth inhibition of L. major promastigotes (resazurin); type: cell-based

| compound | system | L. major SI |
| --- | --- | --- |
| O=C1C=C(N2CC2)C(=O)C(N2CC2)=C1N1CC1 [TZQ] | L. major promastigotes | <11 |
| CC1=C(N2CC2)C(=O)C(C)=C(N2CC2)C1=O [MeDZQ] | L. major promastigotes | 2 |
| C[C@H]1CN1C1=CC(=O)C(N2C[C@@H]2C)=CC1=O [ABQ24] | L. major promastigotes | <1 |
| O=C1C=C(N2CC2)C(=O)C=C1N1CC1 [DZQ] | L. major promastigotes | 3 |
| O=C1C(N2CC2)=C(N2CC2)C(=O)C(N2CC2)=C1N1CC1 [ABQ22] | L. major promastigotes | 1 |
| CC1=C(N2CC2)C(=O)C(CO)=C(N2CC2)C1=O [RH1] | L. major promastigotes | <1 |
| CC1(C)CN1C1=C(F)C(=O)C(N2CC2(C)C)=C(F)C1=O [ABQ30] | L. major promastigotes | 22 |
| CCCOC1=C(N2CC2)C(=O)C(OCCC)=C(N2CC2)C1=O [ABQ8] | L. major promastigotes | 2 |

---

tested on: bloodstream form T. brucei; assay: Growth inhibition of wild type / control bloodstream form T. brucei (resazurin); assay type: cell-based; settings: Trypanosoma brucei, read-out: EC50 Wild type
reported_endpoint: EC50

| compound | result |
| --- | --- |
| CC1CCC(NC(=O)N(CCCl)N=O)CC1 (centres unmarked) [Semustine] | 15 µM |
| S=P(N1CC1)(N1CC1)N1CC1 [ThioTEPA, reference compound] | 39.4 µM |
| C1CN1c1nc(N2CC2)nc(N2CC2)n1 [Triethylenemelamine] | 2.4 µM |
| NC(=O)c1cc(N2CC2)c([N+](=O)[O-])cc1[N+](=O)[O-] [CB1954, reference compound] | 2.16 µM |
| N[C@@H](Cc1ccc(N(CCCl)CCCl)cc1)C(=O)O [Melphalan] | 8.74 µM |

---

test system: T. cruzi epimastigotes; assay: Growth inhibition of T. cruzi epimastigotes (resazurin); assay type: cell-based; conditions: read-out: T. cruzi EC50

| compound | system | EC50 [nM] |
| --- | --- | --- |
| O=C1C=C(N2CC2)C(=O)C=C1N1CC1 [DZQ] | T. cruzi epimastigotes | 5 |

---

tested on: T. brucei Tbsnm1 null mutants (ΔTbsnm1); experiment: microbe, parasite or virus in culture; assay type: cell-based; settings: Trypanosoma brucei, read-out: EC50 ΔTbsnm1
pEC50: −log10 of the molar value.
Outcome label depends on pEC50 relative to 6: at/above gives 1 (yes), below gives 0 (no).

| compound | assigned_class |
| --- | --- |
| CC1=C(N2CC2)C(=O)C(CO)=C(N2CC2)C1=O [RH1] | 1 (yes) |
| C[C@@H]1CN1C1=CC(=O)C(N2C[C@H]2C)=CC1=O [ABQ23] | 0 (no) |
| O=C1C=C(N2CC2)C(=O)C(N2CC2)=C1N1CC1 [TZQ] | 1 (yes) |
| O=C1C=C(N2CC2)C(=O)C=C1N1CC1 [DZQ] | 1 (yes) |
| O=C1C(N2CC2)=C(N2CC2)C(=O)C(N2CC2)=C1N1CC1 [ABQ22] | 1 (yes) |
| CC1CS(=O)(=O)CCN1/N=C/c1ccc([N+](=O)[O-])o1 (centres unmarked) [Nifurtimox, reference compound] | 0 (no) |
| NCCCC(N)(C(=O)O)C(F)F (centres unmarked) [DFMO, difluoromethylornithine, reference compound] | 0 (no) |

---

Quick reference: pEC50 of the listed items.
tested on: differentiated THP‐1 cells; assay: Mammalian inhibition assay, differentiated THP-1 cells; format: cell-based; conditions: Homo sapiens, THP-1, 72 h, read-out: THP‐1 EC50
pEC50: −log10 of the molar value.

| structure_as_smiles | relation | pEC50 |
| --- | --- | --- |
| O=C1C=C(N2CC2)C(=O)C=C1N1CC1 | = | 6.74 |
| CC1=C(N2CC2)C(=O)C(C)=C(N2CC2)C1=O | = | 6.05 |
| CCCOC1=C(N2CC2)C(=O)C(OCCC)=C(N2CC2)C1=O | = | 5.53 |
| CC1(C)CN1C1=C(F)C(=O)C(N2CC2(C)C)=C(F)C1=O | = | 5.43 |
| O=C1C=C(N2CC2)C(=O)C(N2CC2)=C1N1CC1 | > | 7.00 |

---

system: T. cruzi epimastigotes; test: Growth inhibition of T. cruzi epimastigotes (resazurin); assay type: cell-based; conditions: Trypanosoma cruzi, 336 h, read-out: T. cruzi EC50

| compound | unit_label | relation | EC50 |
| --- | --- | --- | --- |
| CCCOC1=C(N2CC2)C(=O)C(OCCC)=C(N2CC2)C1=O | nM | = | 1300 |
| O=C1C(F)=C(N2CC2)C(=O)C(N2CCOCC2)=C1N1CC1 | nM | = | 445 |
| CC(C)NC1=C(N2CC2)C(=O)C(NC(C)C)=C(N2CC2)C1=O | nM | = | 5550 |
| CCOC(=O)NC1=C(N2CC2)C(=O)C(NC(=O)OCC)=C(N2CC2)C1=O | nM | = | 6000 |
| O=C1C=C(N2CC2)C(=O)C=C1N1CC1 | nM | < | 10 |
| CC1=C(N2CC2)C(=O)C(C)=C(N2CC2)C1=O | nM | = | 55 |
| CCC(=O)NC1=C(N2CC2C)C(=O)C(NC(=O)CC)=C(N2CC2C)C1=O (stereo not shown) | nM | > | 10000 |
| CC1(C)CN1C1=C(F)C(=O)C(N2CC2(C)C)=C(F)C1=O | nM | = | 980 |
| CC(=O)NC1=C(N2CC2)C(=O)C(NC(C)=O)=C(N2CC2)C1=O | nM | = | 3310 |
| CC1(C)CN1C1=C(Br)C(=O)C(N2CC2(C)C)=C(Br)C1=O | nM | = | 8640 |

---

tested on: bloodstream form T. brucei; experiment: Growth inhibition of wild type / control bloodstream form T. brucei (resazurin); assay type: cell-based; conditions: Selectivity Index: fold difference in EC50 of THP‐1 line relative to parasite

| compound | system | T. brucei SI |
| --- | --- | --- |
| C[C@@H]1CN1C1=CC(=O)C(N2C[C@H]2C)=CC1=O [ABQ23] | bloodstream form T. brucei | <1 |
| C[C@H]1CN1C1=CC(=O)C(N2C[C@@H]2C)=CC1=O [ABQ24] | bloodstream form T. brucei | <1 |
| O=C1C(N2CC2)=C(N2CC2)C(=O)C(N2CC2)=C1N1CC1 [ABQ22] | bloodstream form T. brucei | 1 |
| CC1=C(N2CC2)C(=O)C(CO)=C(N2CC2)C1=O [RH1] | bloodstream form T. brucei | <5 |

---

system: T. brucei over expressing TbCPR2 (Tbcpr2++); assay: microbe, parasite or virus in culture; assay type: cell-based; conditions: Trypanosoma brucei, read-out: EC50 Tbcpr2++
pEC50: −log10 of the molar value.
Entries and their pEC50
reported_endpoint: pEC50

| compound | result |
| --- | --- |
| CC1=C(N2CC2)C(=O)C(CO)=C(N2CC2)C1=O | 7.70 |
| C[C@@H]1CN1C1=CC(=O)C(N2C[C@H]2C)=CC1=O | 5.45 |
| O=C1C=C(N2CC2)C(=O)C(N2CC2)=C1N1CC1 | 6.55 |
| O=C1C(N2CC2)=C(N2CC2)C(=O)C(N2CC2)=C1N1CC1 | 7.70 |
| C[C@H]1CN1C1=CC(=O)C(N2C[C@@H]2C)=CC1=O | 5.77 |
| NCCCC(N)(C(=O)O)C(F)F (stereo not drawn) [DFMO, difluoromethylornithine, reference compound] | 4.48 |
